# PROTOCOL: chemical genetic growth profiling, strain panel (AID 1159580);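 note: tested at 20 µM; growth read once vehicle control cultures reached saturation at 30 °C; 1 = growth at the plate median or of vehicle wells; lower values mean less growth of the strain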
# CONDITION CONTEXT: S. cerevisiae deletion strains, growth OD, locus YNL322C, strain KRE1, active compounds read low
The whole screen tested about 5,500 compounds, of which about 2,000 (36%) were called active. Not shown: some 18% with an inconclusive outcome. Some of the results follow.
Some compounds, each annotated with its measured normalized growth.
Please give the numeric answer without any surrounding text.

Would you please look over these solved cases?
Cn1nccc1NS(=O)(=O)c1cccc(Cl)c1 = 1
CCCCN1CCC(COC(=O)c2cc(Cl)c(N)c3c2OCCO3)CC1 = 0.982
O=C(O)c1ccccc1C(=O)Nc1ccc(S(=O)(=O)Nc2nccs2)cc1 = 1.01
O=c1c2cc(NS(=O)(=O)c3ccc(Cl)cc3)ccc2oc2ncccc12 = 0.994
NC(N)=NCCC[C@@H](NC(=O)[C@@H](N)Cc1ccc(O)cc1)C(=O)O = 1.01
NC(N)=NCCCC(NC(=O)C(N)Cc1ccc(O)cc1)C(=O)O (stereo unspecified) = 1

query: Need normalized growth, item S=P(N1CC1)(N1CC1)N1CC1
result: 1.01

query: Param item: CC(=O)Nc1ccc(S(=O)(=O)Nc2ncccn2)cc1
result: 0.999

query: Now consider Cc1c(S(=O)(=O)c2ccc(Cl)cc2)csc1C(=O)Nc1ccc(N2CCOCC2)c(Cl)c1 .
result: 0.991

query: Consider next the compound Cc1cscc1S(=O)(=O)c1ccc(Cl)cc1 in the same way.
result: 0.975

query: Next up: Cc1cc(NS(=O)(=O)c2ccc(NS(=O)(=O)c3cc(C)c(Cl)cc3C)cc2)no1
result: 0.99

###

# PROTOCOL: chemical genetic growth profiling, strain panel (AID 1159580);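 note: tested at 20 µM; growth read once vehicle control cultures reached saturation at 30 °C; 1 = growth at the plate median or of vehicle wells; lower values mean less growth of the strain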
# CONDITION CONTEXT: S. cerevisiae deletion strains, growth OD, locus YLR268W, strain sec22, active compounds read low
About 2,000 (36%) of roughly 5,500 compounds were called active. Inconclusive results (about 18%) are left out. Some of the results follow.
REPORTED PROPERTY: normalized growth
Would you mind answering with just the numeric figure?

Known normalized growth results, listed for orientation:
CNCCCN1c2ccccc2CCc2ccccc21 = 0.988
CCN(CC)C(C)CN1c2ccccc2Sc2ccccc21 (stereo not drawn) = 0.924

query: I have this compound here, CCCCCC1C(=O)CCC1CC(=O)OC (stereo not drawn) , and I need its recorded normalized growth.
result: 0.956

query: Now give it for COc1cc2c(cc1/C=C/C(=O)c1cc(OC)c(OC)cc1OC)OCO2 too.
result: 1.02

query: Now the compound COc1cc2c(cc1-c1cc3cc4ccoc4cc3oc1=O)OCO2
result: 0.95

###

# PROTOCOL: chemical genetic growth profiling, strain panel (AID 1159580);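 note: tested at 20 µM; growth read once vehicle control cultures reached saturation at 30 °C; 1 = growth at the plate median or of vehicle wells; lower values mean less growth of the strain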
# CONDITION CONTEXT: S. cerevisiae deletion strains, growth OD, locus YNL071W, strain lat1, active compounds read low
Out of some 5,500 compounds screened, about 2,000 (36%) were called active. Roughly 18% stayed inconclusive and do not appear here. This is one part of the list.
Lab note: compare normalized growth with 1, writing Satisfied if less and Not satisfied if equal or more.

CO[C@]12C[C@@H](COC(=O)c3cncc(Br)c3)CN(C)[C@@H]1Cc1cn(C)c3cccc2c13 = Satisfied

query: # check: normalized growth < 1 for NC(=O)c1ncn(C2O[C@H](CO)[C@@H](O)[C@H]2O)c1N (some centres not stated)
result: Not satisfied
